B1: Caulobacter ParB omega fusion; a variant is named by its letters at X, in order, B8GW30 (parent)
chain: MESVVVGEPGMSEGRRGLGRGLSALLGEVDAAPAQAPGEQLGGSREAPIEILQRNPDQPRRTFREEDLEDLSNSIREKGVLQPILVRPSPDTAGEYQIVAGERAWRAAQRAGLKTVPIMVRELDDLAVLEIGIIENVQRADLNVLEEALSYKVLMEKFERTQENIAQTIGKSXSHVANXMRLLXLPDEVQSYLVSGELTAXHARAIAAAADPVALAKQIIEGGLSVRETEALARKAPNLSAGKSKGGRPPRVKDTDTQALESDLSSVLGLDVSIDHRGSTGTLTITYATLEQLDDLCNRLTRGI

# Variants of: B1
# TEST_DESCRIPTION: one-hybrid fitness for binding NBS DNA (the Noc-binding site; scaled: cognate 1, non-cognate 0); higher = stronger binding
# PROTOCOL_CONDITIONS: with NBS DNA site
In all, about 81,000 sequences were measured (“one-hybrid fitness for binding NBS DNA”: median about -0.1, highest 2% from about 0.36 on). The sample as a whole holds a higher share of the highest values than the screen did.
1 means recorded one-hybrid fitness for binding NBS DNA is 0.4 or above; -1 means it is below 0.4.

| SEQUENCE_CHANGE | CAT |
| --- | --- |
| RRRR | 1 |
| QVTR | -1 |
| RRNR | 1 |
| RRNG | -1 |
| RRSF | -1 |
| YTVM | -1 |
| RCGR | 1 |
| ARHS | -1 |
| RCER | -1 |
| RFGR | -1 |
| PNTQ | -1 |
